- System: SK-BR3 (HER2 positive)
- assay.procedure: In vitro cytotoxicity (cell proliferation inhibition, SRB), SK-BR3
- Assay type: cell-based
- run.parameters: Homo sapiens, SK-BR-3; pyrrolobenzodiazepine derivatives (free drugs), 144 hours, SRB; read-out: IC50 (nM) SK-BR3
measured.metric: IC50 (nM)
# unit: nM | format: bare number

// returns reported IC50 for input C=C1CC2CNc3cc(OCc4cc(COc5cc6c(cc5OC)C(=O)N5CC(=C)C[C@H]5CN6)cc(OCCOCCOCCOCC(=O)O)c4)c(OC)cc3C(=O)N2C1 (stereo partly shown) 18.2

---

- System: JIMT-1 (HER2 positive)
- assay.procedure: In vitro cytotoxicity (cell proliferation inhibition, SRB), JIMT-1
- Assay type: cell-based
- run.parameters: Homo sapiens, JIMT-1; pyrrolobenzodiazepine derivatives (free drugs), 144 hours, SRB; read-out: IC50 (nM) JIMT-1
measured.metric: IC50

Query: IC50; subject: C=C1CC2CNc3cc(OCc4cc(COc5cc6c(cc5OC)C(=O)N5CC(=C)C[C@H]5CN6)cc(OCCOCCOCCOCC(=O)O)c4)c(OC)cc3C(=O)N2C1 (stereo partly shown) > 100 nM
